Would you kindly list inhibition at 10 µM for each of these compounds?
target: Zap70 (Homo sapiens, UniProt P43403); test: Zap70 kinase assay (ELISA or Alphascreen); format: biochemical; details: read-out: Zap70 inhibition of enzyme activity
Sequence (P43403 338-600 limits assumed, species assumed): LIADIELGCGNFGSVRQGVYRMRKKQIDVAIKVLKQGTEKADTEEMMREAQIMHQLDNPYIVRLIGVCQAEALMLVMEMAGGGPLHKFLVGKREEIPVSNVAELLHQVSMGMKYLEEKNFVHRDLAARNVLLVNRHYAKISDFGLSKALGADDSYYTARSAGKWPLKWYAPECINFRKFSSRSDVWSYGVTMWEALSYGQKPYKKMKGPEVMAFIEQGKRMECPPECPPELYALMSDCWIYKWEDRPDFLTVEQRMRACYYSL

Value sought: inhibition at 10 µM, system Zap70 (Homo sapiens, UniProt P43403), item O=C(NCc1ccc(F)cc1)c1cncc(-c2ccncc2)c1 . Result: < 50%

Value sought: inhibition at 10 µM, system Zap70 (Homo sapiens, UniProt P43403), item Cc1ccc(C)c(NC(=O)c2cncc(-c3cccs3)c2)c1 . Result: < 50%

Value sought: inhibition at 10 µM, system Zap70 (Homo sapiens, UniProt P43403), item CC(NC(=O)c1cncc(-c2cccs2)c1)c1ccc(F)cc1 (centres unmarked) . Result: < 50%

Can you give me inhibition at 10 µM for all of these, one by one?
1. Cc1cc(-c2cncc(C(=O)NC(C)C)c2)cc(C)c1O
2. COc1cc(-c2cncc(C(=O)Nc3ccccc3C)c2)ccc1O
3. CN1CCN(c2ccc(CNC(=O)c3cncc(-c4ccc(F)cc4)c3)cc2)CC1
4. C[C@@H](NC(=O)c1cncc(-c2ccncc2)c1)c1ccccc1

Output:
1. ≥ 50%
2. < 50%
3. < 50%
4. ≥ 50%

Can you give me inhibition at 10 µM for all of these, one by one?
1. COc1cc(-c2cncc(C(=O)Nc3ccc(F)cc3C)c2)ccc1O
2. COc1cc(-c2cncc(C(=O)NCCc3ccccc3)c2)c(Cl)c(OC)c1OC
3. COc1cccc([C@H](C)NC(=O)c2cncc(-c3ccc(F)cc3)c2)c1
4. CC(C)C(CO)NC(=O)c1cncc(-c2cccnc2)c1 (centres unmarked)

Output:
1: < 50%; 2: < 50%; 3: ≥ 50%; 4: < 50%

###

Target: fms (Homo sapiens, UniProt P07333)
Sequence (P07333 582-910 limits assumed): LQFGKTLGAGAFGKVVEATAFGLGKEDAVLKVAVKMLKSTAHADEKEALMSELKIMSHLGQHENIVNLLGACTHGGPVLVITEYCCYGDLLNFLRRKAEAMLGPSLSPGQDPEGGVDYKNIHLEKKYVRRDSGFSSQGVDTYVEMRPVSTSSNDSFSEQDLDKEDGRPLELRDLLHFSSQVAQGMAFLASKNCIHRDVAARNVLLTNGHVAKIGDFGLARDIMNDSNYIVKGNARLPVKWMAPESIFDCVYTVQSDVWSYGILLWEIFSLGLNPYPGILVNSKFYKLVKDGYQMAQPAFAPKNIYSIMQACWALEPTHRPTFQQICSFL
Assay: fms kinase assay (ELISA or Alphascreen)
Format: biochemical
Conditions: read-out: fms inhibition of enzyme activity
Would you kindly list inhibition at 10 µM for each of these molecules?

Can you give me inhibition at 10 µM for all of these, one by one?
1. C[C@H](NC(=O)c1cncc(-c2ccc(F)cc2)c1)c1ccccc1
2. Cc1ccccc1NC(=O)c1cncc(-c2cccnc2)c1
3. COc1cc(-c2cncc(C(=O)Nc3ccccc3C)c2)ccc1O
4. COc1ccc(CNC(=O)c2cncc(-c3ccc4c(c3)OCO4)c2)cc1

Output:
1. < 50%
2. < 50%
3. < 50%
4. < 50%

###

Would you kindly list inhibition at 10 µM for each of these compounds?
Target: fms (Homo sapiens, UniProt P07333)
Sequence (P07333 582-910 limits assumed): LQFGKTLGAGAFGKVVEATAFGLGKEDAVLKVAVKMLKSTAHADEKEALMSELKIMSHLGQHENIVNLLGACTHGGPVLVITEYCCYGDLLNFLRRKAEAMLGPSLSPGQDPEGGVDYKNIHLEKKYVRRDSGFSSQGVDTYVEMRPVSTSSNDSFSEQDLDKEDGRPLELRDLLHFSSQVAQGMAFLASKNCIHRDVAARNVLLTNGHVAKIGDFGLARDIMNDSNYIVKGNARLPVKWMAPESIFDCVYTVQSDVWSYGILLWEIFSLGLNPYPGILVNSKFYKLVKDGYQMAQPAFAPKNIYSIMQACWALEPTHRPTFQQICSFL
Test: fms kinase assay (ELISA or Alphascreen)
Format: biochemical
Settings: read-out: fms inhibition of enzyme activity

Below are worked cases with known answers.
Short answer for COc1cc(-c2cncc(C(=O)Nc3ccccc3C)c2)c(Cl)c(OC)c1OC : inhibition at 10 µM was ≥ 50%

Short answer for O=C(NCc1ccc(Cl)c(Cl)c1)c1cncc(-c2ccc3c(c2)OCO3)c1 : inhibition at 10 µM was < 50%

Short answer for COc1ccc(NC(=O)c2cncc(-c3cc(OC)c(OC)c(OC)c3Cl)c2)c(OC)c1 : inhibition at 10 µM was < 50%

Short answer for Cc1cc(-c2cncc(C(=O)N[C@@H](C)c3ccccc3)c2)cc(C)c1O : inhibition at 10 µM was < 50%

Short answer for Cc1ccc(CNC(=O)c2cncc(-c3cc(C)c(O)c(C)c3)c2)cc1 : inhibition at 10 µM was < 50%

Short answer for CC(C)C(CO)NC(=O)c1cncc(-c2cccs2)c1 (stereo not shown) : inhibition at 10 µM was < 50%

Short answer for COc1cc(-c2cncc(C(=O)NC(C)C)c2)c(Cl)c(OC)c1OC : inhibition at 10 µM was < 50%

Short answer for C[C@H](NC(=O)c1cncc(-c2ccc3c(c2)OCO3)c1)c1ccccc1 : inhibition at 10 µM was < 50%

Can you give me inhibition at 10 µM for all of these, one by one?
1. COc1cccc(-c2cncc(C(=O)Nc3ccc(F)cc3C)c2)c1
2. COc1ccc(NC(=O)c2cncc(-c3cccnc3)c2)c(OC)c1

Output:
1. < 50%
2. ≥ 50%

Taken from patent US8030336B2.
